target: Cellular tumor antigen p53 (Homo sapiens); experiment: nuclear p53 accumulation, HPV+ cells – imaging, p53-positive nuclei imaging, 24 h, 48 h (AID 1508601); settings: 24/48 h, Library stock concentration: 400 uM, stronger effect = higher value
About 85 (1%) of roughly 5,700 compounds were called active. This excerpt belongs to a sample that is enriched for actives.
Can you tell me p53-positive nuclei, normalised for the items I'm about to list?
Give the value in % but do not write % after it.

Data request: GET /values?readout=p53-positive nuclei, normalised&system=Cellular tumor antigen p53 (Homo sapiens)&item= COC(=O)C=CC(=O)N(O)CCCCNCc1ccc(COC(=O)Nc2cccc3ccccc23)cc1
Data returned: -0.552

Data request: Another compound: CC(C)CC(C(=O)NC(Cc1ccc(OCc2ccccc2)cc1)C(=O)NC(C)(C)C)N(C)Cc1ccc(C(C)(C)C)cc1 (centres undefined)
Data returned: -0.221

Data request: What about CC(=O)NC(CC(C)C)C(=O)NC(CC(C)C)C(=O)NC(C=O)CCCN=C(N)N (centres undefined) ?
Data returned: -0.0354

Data request: Likewise for CC(C)C(N)C(=O)NC(Cc1ccccc1)C(=O)O (centres undefined) ?
Data returned: 0.0868

Data request: What about this compound? CCC(C)C(NC(=O)C(C(C)CC)N(C)C(C)=O)C(=O)NC(C(=O)NC(CC(C)C)C(=O)[C@@]1(C)CO1)C(C)O (some centres undefined)
Data returned: 100

Data request: Repeat for the following compound: CN1CCC(c2c(O)cc(O)c3c(=O)cc(-c4ccccc4Cl)oc23)C(O)C1 (centres undefined)
Data returned: 41.3

Data request: How about this compound: O=Nc1c(O)[nH]c2c(Cl)c(Cl)ccc12
Data returned: -0.101

Data request: Another compound: COc1ccc(N(C(=O)Nc2c(C)cccc2C)c2cc(Nc3ccc(N4CCN(C)CC4)cc3OC)ncn2)c(OC)c1
Data returned: -0.151

Data request: What about CN1CCC(c2c(O)cc(O)c3c(=O)cc(-c4ccccc4Cl)oc23)C1CO (centres undefined) ?
Data returned: 16

###

test: nuclear p53 accumulation, HPV+ cells – imaging, p53-positive nuclei imaging, 24 h, 48 h (AID 1508601); settings: 24/48 h, measured here: cell number at 24 h, Library stock concentration: 46 uM
The campaign covered roughly 5,700 compounds. About 85 (1%) were called active. Shown is part of a subset that was picked to be rich in actives. Peptide text beside a SMILES is read from it. * marks the point of attachment. Cbz = O=C(OCc1ccccc1)*
Hi there, I'd appreciate the recorded nuclei count, normalised for every entry that follows.
Numeric only. Scale: %

Data request: I am curious: what nuclei count, normalised value has been reported for O=C1CC(c2ccc([N+](=O)[O-])cc2)=NN1c1ccccc1 ?
Data returned: 114

Data request: Could you do the same for CC(C)(C)Nc1nc2cc(Cl)c(Cl)cc2nc1S(C)(=O)=O , please?
Data returned: 108

Data request: Another molecule: COc1cc(OC)c2c(=O)[nH]c(-c3cc(C)c(OCCO)c(C)c3)nc2c1
Data returned: 114

Data request: Also COc1ccc(CC(NC(=O)C(C)NC(=O)CN2CCOCC2)C(=O)NC(Cc2ccccc2)C(=O)[C@@]2(C)CO2)cc1 (some centres undefined) , if possible.
Data returned: 107

Data request: Continue with O=C1NCCSc2c1sc1ccc(O)cc21
Data returned: 111

Data request: Try this molecule next: COC(=O)C(NC(=O)c1cc(-c2ccccc2)nc2ccccc12)c1ccccc1 (centres undefined)
Data returned: 105

Data request: Can you handle CC(C)CC(C=O)NC(=O)C(CC(C)C)NC(=O)C(CC(C)C)NC(=O)OCc1ccccc1 (stereo not drawn) (Cbz-Leu-Leu-Leu-aldehyde; configuration not given here) next?
Data returned: 112

Data request: Also CN1CCc2c(c3ccccc3n2Cc2ccc(C(=O)NO)cc2)C1 ?
Data returned: 117

Data request: For Cc1cc(OCCCS(C)(=O)=O)cc(C)c1-c1cccc(COc2ccc3c(c2)OCC3CC(=O)O)c1 (centres undefined) then?
Data returned: 101
